From: patent US20190315823A1

# Test system: methicillin resistant Staphylococcus aureus (MRSA) biofilm
# Settings: approximate peptide concentration […] (around 3 μg/ml); compared to untreated samples
# Description: Methods of assessment of anti-biofilm activity—Biofilm formation was initially analyzed using a static abiotic solid surface assay as described elsewhere (de la Fuente-Nunez et al., 2012). […] Peptide was added at time zero (prior to adding the diluted, overnight cultures) in varying concentrations, and the decrease in biofilm formation was recorded at 22-46 h for most bacteria. […]
Ends that are not written are not given here.
Metric: % Biofilm inhibition (%)
One number for each entry, in %.

{"Substance": "1002-G6: single substituted 1002 peptide (VQRWLGVWRIRK-NH2) [Peptide 1002-G6]", "% Biofilm inhibition, %": 26}
{"Substance": "1018-Q10: single substituted 1018 peptide (VRLIVAVRIQRR-NH2) [Peptide 1018-Q10]", "% Biofilm inhibition, %": 38}
{"Substance": "HH2-K10: single substituted HH2 peptide (VQLRIRVAVKRA-NH2)", "% Biofilm inhibition, %": 68}
{"Substance": "HH2-K4: single substituted HH2 peptide (VQLKIRVAVIRA-NH2)", "% Biofilm inhibition, %": 65}
{"Substance": "1002-L9: single substituted 1002 peptide (VQRWLIVWLIRK-NH2) [Peptide 1002-L9]", "% Biofilm inhibition, %": 57}
{"Substance": "1018-Q8: single substituted 1018 peptide (VRLIVAVQIWRR-NH2) [Peptide 1018-Q8]", "% Biofilm inhibition, %": 51}
{"Substance": "1002-I1: single substituted 1002 peptide (IQRWLIVWRIRK-NH2) [Peptide 1002-I1]", "% Biofilm inhibition, %": 64}
{"Substance": "HH2-W1: single substituted HH2 peptide (WQLRIRVAVIRA-NH2)", "% Biofilm inhibition, %": 67}

Go through the list and state % Biofilm inhibition for each entry.
1. 1018-V8: single substituted 1018 peptide (VRLIVAVVIWRR-NH2) [Peptide 1018-V8]
2. HH2-I11: single substituted HH2 peptide (VQLRIRVAVIIA-NH2)
3. 1018-L9: single substituted 1018 peptide (VRLIVAVRLWRR-NH2) [Peptide 1018-L9]

1: 34; 2: 55; 3: 52

----------
Please respond with reported IL1β Production for every item in the list.
# System: LPS-stimulated human peripheral blood mononuclear cells (IL1-β)
# Type: cell-based
# Settings: Table 12; cells stimulated with 10 ng/ml LPS; LPS alone 1313 (HH2 derivatives), 1927 (1018 derivatives), 2455 (1002 and hybrid peptides) pg/ml
# Method: LPS from P. aeruginosa strain H103 was highly purified free of proteins and lipids using the Darveau-Hancock method. Briefly, P. aeruginosa was grown overnight in LB broth at 37° C. […] Purified LPS samples were quantitated using an assay for the specific sugar 2-keto-3-deoxyoctosonic acid (KDO assay) and then resuspended in endotoxin-free water (Sigma-Aldrich).
Ends that are not written are not given here.
Answers are plain numbers, in pg/mL.

{"Substance": "HH2-K12: single substituted HH2 peptide (VQLRIRVAVIRK-NH2)", "Target of assay": "LPS-stimulated human peripheral blood mononuclear cells (IL1-β)", "Output unit": "pg/mL", "Value observed": 1203}
{"Substance": "1002-L4: single substituted 1002 peptide (VQRLLIVWRIRK-NH2) [Peptide 1002-L4]", "Target of assay": "LPS-stimulated human peripheral blood mononuclear cells (IL1-β)", "Output unit": "pg/mL", "Value observed": 283}
{"Substance": "1018-G8: single substituted 1018 peptide (VRLIVAVGIWRR-NH2) [Peptide 1018-G8]", "Target of assay": "LPS-stimulated human peripheral blood mononuclear cells (IL1-β)", "Output unit": "pg/mL", "Value observed": 127}
{"Substance": "1002-K11: single substituted 1002 peptide (VQRWLIVWRIKK-NH2) [Peptide 1002-K11]", "Target of assay": "LPS-stimulated human peripheral blood mononuclear cells (IL1-β)", "Output unit": "pg/mL", "Value observed": 127}
{"Substance": "1002-I12: single substituted 1002 peptide (VQRWLIVWRIRI-NH2) [Peptide 1002-I12]", "Target of assay": "LPS-stimulated human peripheral blood mononuclear cells (IL1-β)", "Output unit": "pg/mL", "Value observed": 127}

Working through the 8 substances below one at a time, give IL1β Production for each.
1. HH2-A10: single substituted HH2 peptide (VQLRIRVAVARA-NH2)
2. 1018-R5: single substituted 1018 peptide (VRLIRAVRIWRR-NH2) [Peptide 1018-R5]
3. HH2-V8: single substituted HH2 peptide (VQLRIRVVVIRA-NH2)
4. 1002-A5: single substituted 1002 peptide (VQRWAIVWRIRK-NH2) [Peptide 1002-A5]
5. 1002-V11: single substituted 1002 peptide (VQRWLIVWRIVK-NH2) [Peptide 1002-V11]
6. 1018-G11: single substituted 1018 peptide (VRLIVAVRIWGR-NH2) [Peptide 1018-G11]
7. HH2-I1: single substituted HH2 peptide (IQLRIRVAVIRA-NH2)
8. 1002-A7: single substituted 1002 peptide (VQRWLIAWRIRK-NH2) [Peptide 1002-A7]

2234
1973
691
182
127
1189
1103
132

Would you be so kind as to report IL1β Production for each listed record?
1. 1018-V10: single substituted 1018 peptide (VRLIVAVRIVRR-NH2) [Peptide 1018-V10]
2. 1018-K11: single substituted 1018 peptide (VRLIVAVRIWKR-NH2) [Peptide 1018-K11]
3. HH2-W11: single substituted HH2 peptide (VQLRIRVAVIWA-NH2)
4. HH2-G6: single substituted HH2 peptide (VQLRIGVAVIRA-NH2)
5. HH2-Q5: single substituted HH2 peptide (VQLRQRVAVIRA-NH2)
6. 1002-G12: single substituted 1002 peptide (VQRWLIVWRIRG-NH2) [Peptide 1002-G12]
7. 1002-L1: single substituted 1002 peptide (LQRWLIVWRIRK-NH2) [Peptide 1002-L1]
8. HH2-W2: single substituted HH2 peptide (VWLRIRVAVIRA-NH2)

1: 370; 2: 170; 3: 1362; 4: 1423; 5: 1284; 6: 240; 7: 127; 8: 1293

Please give IL1β Production for each item listed below.
1. HH2-A4: single substituted HH2 peptide (VQLAIRVAVIRA-NH2)
2. 1018-G9: single substituted 1018 peptide (VRLIVAVRGWRR-NH2) [Peptide 1018-G9]

[2000, 1481]

Give one value of IL1β Production per listed substance.
1. 1002-W9: single substituted 1002 peptide (VQRWLIVWWIRK-NH2) [Peptide 1002-W9]
2. 1018-G10: single substituted 1018 peptide (VRLIVAVRIGRR-NH2) [Peptide 1018-G10]
3. HH2-I9: single substituted HH2 peptide (VQLRIRVAIIRA-NH2)
4. HH2-V5: single substituted HH2 peptide (VQLRVRVAVIRA-NH2)
5. HH2-G1: single substituted HH2 peptide (GQLRIRVAVIRA-NH2)

[127, 605, 980, 1696, 1533]

----------
# Tested on: methicillin resistant Staphylococcus aureus (MRSA) biofilm
# Settings: approximate peptide concentration […] (around 3 μg/ml); compared to untreated samples
Ends that are not written are not given here.
Metric: % Biofilm inhibition (%)
Answers are plain numbers, in %.

{"Substance": "1018-I11: single substituted 1018 peptide (VRLIVAVRIWIR-NH2) [Peptide 1018-I11]", "Metric": "% Biofilm inhibition", "Value observed": 16}

Give % Biofilm inhibition for each of the items listed below.
1. HH2-I1: single substituted HH2 peptide (IQLRIRVAVIRA-NH2)
2. HH2-R1: single substituted HH2 peptide (RQLRIRVAVIRA-NH2)
3. HH2-Q12: single substituted HH2 peptide (VQLRIRVAVIRQ-NH2)
4. 1018-K1: single substituted 1018 peptide (KRLIVAVRIWRR-NH2) [Peptide 1018-K1]
5. 1002-L2: single substituted 1002 peptide (VLRWLIVWRIRK-NH2) [Peptide 1002-L2]
6. HH2-Q6: single substituted HH2 peptide (VQLRIQVAVIRA-NH2)
7. HH2-A1: single substituted HH2 peptide (AQLRIRVAVIRA-NH2)

1. 73
2. 53
3. 72
4. 49
5. 72
6. 35
7. 56

----------
What % Biofilm inhibition was measured for each of the following?
# Tested on: methicillin resistant Staphylococcus aureus (MRSA) biofilm
# Settings: approximate peptide concentration […] (around 3 μg/ml); compared to untreated samples
Ends that are not written are not given here.

In the examples that follow, each entry is paired with its recorded % Biofilm inhibition.
{"Substance": "HH2-R7: single substituted HH2 peptide (VQLRIRRAVIRA-NH2)", "% Biofilm inhibition": "3%"}
{"Substance": "1002-K1: single substituted 1002 peptide (KQRWLIVWRIRK-NH2) [Peptide 1002-K1]", "% Biofilm inhibition": "75%"}
{"Substance": "HH2C-HH2N: derivative of HH2, 1002 and 1018 made by SPOT synthesis (VAVIRAVQLRIR-NH2)", "% Biofilm inhibition": "61%"}

Please examine the following record next.
Query: % Biofilm inhibition; subject: 1002-Q9: single substituted 1002 peptide (VQRWLIVWQIRK-NH2) [Peptide 1002-Q9]
41%
